molecular target: P. falciparum 3D7A growth, LDH activity; experiment: parasite LDH-based blood-stage antimalarial activity – strain 3D7A, LDH readout, dose response (AID 2060598); settings: standard media with serum
// bucketize IC50: Low: < 1000 nM; Medium: ≥ 1000 nM and < 3000 nM; High: ≥ 3000 nM

Look over these answered cases.
>>> df
                                   compound  qualitative_label
0  Cn1cccc1C1CCCN1CC(=O)Nc1ccc(S(=O)(=O)N2CCOCC2)cc1 (stereo not drawn)               High
1  O=C(CCCc1c[nH]c2ccccc12)N1CCN(c2ccc(N3CCOCC3)nn2)CC1               High
2  O=C(/C=C/c1n[nH]c2ccccc12)N1CCN(c2cnccn2)CC1             Medium
3  O=C(c1cc2ccccc2[nH]1)N1CCC2(CC(Nc3ccncn3)C2)C1 (stereo not drawn)                Low
4  O=C1CCCN1c1ccc(S(=O)(=O)N2CCN(S(=O)(=O)c3ccccc3)CC2)cc1               High
5  O=C(CCN=C1NS(=O)(=O)c2ccccc21)Nc1ccc(S(=O)(=O)N2CCCC2)cc1               High
6  Cc1cc(-c2cnc(N3CCn4c(nnc4C4CC4)C3)nc2-c2ccncc2)on1             Medium
7  Cc1ccc2nc(CCNC(=O)CCS(=O)(=O)c3ccc4c(c3)CC(=O)N4C)[nH]c2c1                Low

Task: Which class holds `COc1ccc(-c2ccc(CNC(=O)c3cc(C(=O)NC(C)C)ccc3Cl)cc2)cn1` ?
Output: Low

Task: Which class holds `O=C(COc1ccc(Br)cc1F)N1CCN(c2cnccn2)CC1` ?
Output: Medium

Task: Which class holds `N#Cc1c(N)n[nH]c1CCCNC(=O)c1ccc(Cl)c(S(=O)(=O)N2CCCC2)c1` ?
Output: Low

Task: Which class holds `O=C(NCCCN1CCc2ccccc21)c1ccc2c(=O)n(Cc3ccccn3)cnc2c1` ?
Output: Low

----------
biological target: P. falciparum 3D7A growth, LDH activity; experiment: parasite LDH-based blood-stage antimalarial activity – strain 3D7A, LDH readout, dose response (AID 2060598); conditions: standard media with serum
Here the recorded IC50 is given for each entry.
Kindly provide the numeric value in µM only, without the unit symbol.

Take a look at these entries with their results.
                                   compound  value_units  value
0  CCN(C(=O)C=Cc1ccc(S(=O)(=O)N2CCc3ccccc32)cc1)C1CCS(=O)(=O)C1 (stereo unspecified)           µM   2.51
1      NC(=O)CC1CCN(C(=O)c2sc3sccc3c2Cl)CC1           µM   3.16

Task: // lookup IC50 | system=P. falciparum 3D7A growth, LDH activity | key= `O=C(Nc1ccc(N2CCCC2)nc1)N1CCN(c2cnccn2)CC1`
Output: 2

Task: // lookup IC50 | system=P. falciparum 3D7A growth, LDH activity | key= Cc1cccc(-c2nn(Cc3ccc(C(=O)NCCCO)cc3)c(=O)cc2N2CCCC(CO)C2)c1 (stereo unspecified)
Output: 7.94

Task: // lookup IC50 | system=P. falciparum 3D7A growth, LDH activity | key= `O=C(CCn1nnc2cc(S(=O)(=O)N3CCCC3)ccc21)N1CCN(c2ccccn2)CC1`
Output: 1.26

Task: // lookup IC50 | system=P. falciparum 3D7A growth, LDH activity | key= `COc1ccc(NC(=O)c2ccc3c(=O)n(Cc4ccccn4)cnc3c2)cc1N1CCN(C)CC1`
Output: 3.98

Task: // lookup IC50 | system=P. falciparum 3D7A growth, LDH activity | key= `O=C(Nc1nnc(-c2ccccc2)s1)N1CCCN(c2ncccn2)CC1`
Output: 0.2

Task: // lookup IC50 | system=P. falciparum 3D7A growth, LDH activity | key= O=C(CCCc1ncc(-c2ccccc2)o1)N1CCOC2CCCC21 (stereo unspecified)
Output: 2

Task: // lookup IC50 | system=P. falciparum 3D7A growth, LDH activity | key= `CN(C(=O)C[C@@H]1CCN(C(=O)C2CC2)C1)c1ccc(-c2ccc(C#N)cc2)cc1`
Output: 3.98

Task: // lookup IC50 | system=P. falciparum 3D7A growth, LDH activity | key= `COc1ccc(C(=O)N2CCN(c3ccc(-n4cccn4)nn3)CC2)cc1OC`
Output: 1.58

Task: // lookup IC50 | system=P. falciparum 3D7A growth, LDH activity | key= `COc1ccc(N2CCN(C(=O)c3csc(Nc4ccccc4S(C)(=O)=O)n3)CC2)nc1`
Output: 1
